Entries annotated with measured Ratio of Jak2/Btk IC50 values
target: Jak2 tyrosine kinase (Homo sapiens (Human)); experiment: Jak2 Tyrosine Kinase Assay; format: biochemical; conditions: selectivity of Btk over Jak2
Sequence (O60674 whole entry): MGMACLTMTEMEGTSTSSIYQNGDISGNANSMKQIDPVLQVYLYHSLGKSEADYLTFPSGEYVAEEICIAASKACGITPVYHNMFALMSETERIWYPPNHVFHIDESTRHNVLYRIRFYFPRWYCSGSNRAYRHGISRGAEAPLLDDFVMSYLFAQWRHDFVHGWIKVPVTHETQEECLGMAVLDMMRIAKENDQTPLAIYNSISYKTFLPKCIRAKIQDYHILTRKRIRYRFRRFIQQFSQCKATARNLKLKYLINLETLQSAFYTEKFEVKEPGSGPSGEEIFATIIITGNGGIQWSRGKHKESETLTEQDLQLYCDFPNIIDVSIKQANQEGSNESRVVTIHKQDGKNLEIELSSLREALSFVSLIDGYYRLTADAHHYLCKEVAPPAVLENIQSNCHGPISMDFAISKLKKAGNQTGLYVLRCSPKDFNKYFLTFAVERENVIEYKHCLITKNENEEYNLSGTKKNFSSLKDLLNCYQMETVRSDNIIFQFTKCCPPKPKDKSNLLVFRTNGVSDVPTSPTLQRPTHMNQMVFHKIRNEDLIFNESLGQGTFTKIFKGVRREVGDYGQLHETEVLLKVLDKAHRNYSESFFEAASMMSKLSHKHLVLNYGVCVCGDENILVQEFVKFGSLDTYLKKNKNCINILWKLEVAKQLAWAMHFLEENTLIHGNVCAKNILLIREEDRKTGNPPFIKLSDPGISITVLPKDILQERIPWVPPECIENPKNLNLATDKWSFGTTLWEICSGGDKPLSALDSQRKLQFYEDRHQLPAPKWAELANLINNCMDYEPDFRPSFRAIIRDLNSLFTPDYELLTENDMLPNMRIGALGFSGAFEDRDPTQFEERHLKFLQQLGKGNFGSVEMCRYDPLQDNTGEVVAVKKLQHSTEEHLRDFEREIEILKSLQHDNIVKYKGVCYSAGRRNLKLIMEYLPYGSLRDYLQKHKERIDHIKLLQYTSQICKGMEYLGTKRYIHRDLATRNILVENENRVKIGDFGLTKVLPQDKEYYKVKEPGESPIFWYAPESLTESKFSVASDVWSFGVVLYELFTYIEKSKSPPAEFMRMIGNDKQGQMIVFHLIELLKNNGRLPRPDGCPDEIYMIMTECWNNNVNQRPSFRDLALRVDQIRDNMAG

# molecule, Ratio of Jak2/Btk IC50 values
measured = [
    ("Cc1c(-c2c(Cl)cc(C(N)=O)c3[nH]c4cc(C(C)(C)O)ccc4c23)cccc1-n1c(=O)ccn(-c2ccc(F)cc2)c1=O [Example 24]", 5500),
    ("Cc1c(-c2c(Cl)cc(C(N)=O)c3[nH]c4cc(C(C)(C)O)ccc4c23)cccc1-n1c(=O)c2ccccc2n(C)c1=O", 2000),
    ("Cc1c(-c2c(Cl)cc(C(N)=O)c3[nH]c4cc(C(C)(C)O)ccc4c23)cccc1-n1c(=O)c2ccc(F)cc2n(C)c1=O", ">3200"),
    ("Cc1c(-c2c(Cl)cc(C(N)=O)c3[nH]c4cc(C(C)(C)O)ccc4c23)cccc1-n1c(=O)c2cccc(C)c2n(C)c1=O", 270),
    ("Cc1c(-c2c(F)cc(C(N)=O)c3[nH]c4cc(C(C)(C)O)ccc4c23)cccc1-n1c(=O)[nH]c2c(F)cccc2c1=O", 2600),
    ("COc1cccc2c(=O)n(-c3cccc(-c4c(Cl)cc(C(N)=O)c5[nH]c6cc(C(C)(C)O)ccc6c45)c3C)c(=O)n(C)c12", 2000),
    ("CC(C)(O)c1ccc2c(c1)[nH]c1c(C(N)=O)cc(Cl)c(-c3cccc(-n4c(=O)[nH]c5c(F)cccc5c4=O)c3Cl)c12", 5100),
]

###

Data export: pIC50 values recorded with Jak2 tyrosine kinase (Homo sapiens (Human)).
pIC50: −log10 of the molar value.

# molecule, boundType, pIC50
measured = [
    ("Cc1c(-c2c(Cl)cc(C(N)=O)c3[nH]c4cc(C(C)(C)O)ccc4c23)cccc1-n1c(=O)c2cc(F)ccc2n(C)c1=O", "<", 5.70),
    ("Cc1c(-c2c(F)cc(C(N)=O)c3[nH]c4cc(C(C)(C)O)ccc4c23)cccc1-n1c(=O)c2cccc(F)c2n(C)c1=O (atropisomer, axis not shown)", "=", 5.66),
    ("COc1cccc2c(=O)n(-c3cccc(-c4c(Cl)cc(C(N)=O)c5[nH]c6cc(C(C)(C)O)ccc6c45)c3C)c(=O)n(C)c12", "=", 5.80),
]

###

Target or system Jak2 tyrosine kinase (Homo sapiens (Human)); recorded quantity IC50.

# compound, outputUnit, boundType, IC50
records = [
    ("Cc1cc(C(N)=O)c2[nH]c3cc(C(C)(C)O)ccc3c2c1-c1cccc(-n2c(=O)c3cccc(F)c3n(C)c2=O)c1C (atropisomer, axis not shown)", "nM", "=", 790),
    ("CC(C)(O)c1ccc2c(c1)[nH]c1c(C(N)=O)cc(Cl)c(-c3cccc(-n4c(=O)[nH]c5c(F)cccc5c4=O)c3Cl)c12", "nM", "=", 1800),
    ("Cc1c(-c2c(Cl)cc(C(N)=O)c3[nH]c4cc(C(C)(C)O)ccc4c23)cccc1-n1c(=O)c2ccccc2n(C)c1=O", "nM", "=", 2000),
    ("Cc1c(-c2c(Cl)cc(C(N)=O)c3[nH]c4cc(C(C)(C)O)ccc4c23)cccc1-n1c(=O)[nH]c2c(F)cc(F)cc2c1=O (racemic)", "nM", ">", 2000),
]
